Tested system: T1, di huNKG2D ECD Fc avi (human, biotinylated at the avi-tag)
T1 construct: Dimeric fusion of human NKG2D ECD to the C-terminus of an avi-tagged human IgG1 Fc
T1 sequence (chain, as listed by the source limits assumed): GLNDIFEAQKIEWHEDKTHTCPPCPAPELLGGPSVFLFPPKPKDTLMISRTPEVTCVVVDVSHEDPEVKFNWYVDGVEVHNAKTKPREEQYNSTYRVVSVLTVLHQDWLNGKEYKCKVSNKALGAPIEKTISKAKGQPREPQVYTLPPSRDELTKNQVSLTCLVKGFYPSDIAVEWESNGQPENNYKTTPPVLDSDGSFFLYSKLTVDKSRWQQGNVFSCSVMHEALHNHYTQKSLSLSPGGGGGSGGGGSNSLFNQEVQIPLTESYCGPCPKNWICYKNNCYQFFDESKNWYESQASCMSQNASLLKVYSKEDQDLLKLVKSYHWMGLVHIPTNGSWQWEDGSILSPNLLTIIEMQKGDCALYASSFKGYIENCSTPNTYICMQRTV
Assay: SPR Biacore; IgG captured by anti-Fab, antigen analyte
Observed property: kon (M⁻¹ s⁻¹)
Give the quantity in M⁻¹ s⁻¹, number only.

Query (binder): anti-NKG2D antibody clone 013 (antibody, V domains shown, From transgenic rabbits) VH: EQSGGGAGGGLVKPGGSLELCCKASGFDFSIYWMSWVRQSPGKGLEWIGRIYGGSSDYTAYASWVNGRFTLSRDIDQSTGCLQLNSLTAADTAMYYCVRLNPSFSRSFDYWGQGTLVTVSS VL: DIQMTQSPSSVSASVGDRVTITCRASQGIFSWLVWYQQKPGKAPELLMYGASTLQSGVPSRFSGSGSGTDFTLTISSLQPEDFATYYCQQGYSTPYTFGQGTKVEIK ; field requested: kon
84000

Another binder: anti-NKG2D antibody clone 018 (antibody, V domains shown, From transgenic rabbits) VH: QQLEQSGGGLVTPGGSLKVCCKASGFDFTTYWMTWVRQAPEKGLEWIGCIHGGDSGATYYANWVNGRFTLSRDIDQSTGCLQLNSLTAADTAMYYCARPGYPSWSKTFDLWGQGTMVTVSS VL: DIQMTQSPSSLSASVGDRVTITCQASQDISNALNWYQQKPGKAPKLLIYAASTLQSGVPSRFSGSGSGTDFTLTISSLQPEDFATYYCQHSNSFPLTFGGGTKVEIK
43000

Another binder: anti-NKG2D antibody clone 230 (antibody, V domains shown, From transgenic rabbits) VH: QQLEQSGGGLVKPGGSLELCCIASGFDFSTYWMTWVRQAPGKGLEWIGCIHGGGSGTTSYASWVNGRFTLSRDIDQSTGCLQLTSLTAADTAMYYCARPGYRSWSKTFDLWGQGTMVTVSS VL: DIQMTQSPSSLSASVGDRVTITCQANQDISNALNWYQQKPGKAPKLLIYAASSLQSGVPSRFSGSGSGTDFTLTISSLQPEDFAAYYCQQAASFPLTFGGGTKVEIK
43000

Another binder: anti-NKG2D antibody clone 395 (antibody, V domains shown, From transgenic rabbits; rabbit VH, human VL) VH: QEQLEQSGGGLVTPGGSLKLCCTASGFDFNTFWMTWVRQAPGKGLEWIGCIHGGSGSRDYASWVNGRFTLSRDIDQSTACLQVNSLTAADTAMYYCARPGYRSWSKTFDLWGQGTMVTVSS VL: DIQMTQSPSSLSASVGDRVTITCRASQDISGALNWYQQKPGKAPNLLIYAASSLQSGVPSRFSGSGSGTDYTLTISSLQPEDFATYYCQQANSFPLTFGGGTKVEIK
57000
